Values from the supplement of paper PMC5579334

Please go through the items and note down their drug sensitivity score.
- Test system: HS-PSS
- Protocol text: drug sensitivity score (DSS, CellTox-Green cytotoxicity, 72 h) (DSS (dimensionless)); higher = more cytotoxic; extreme values may be limits of the assay

API: value(readout=drug sensitivity score, system=HS-PSS) for record NC(=O)Nc1cc(-c2cccc(F)c2)sc1C(=O)N[C@H]1CCCNC1 [AZD7762] (max concentration tested 1000 nM)
0.32

Can you handle CC(=O)Nc1cccc(-n2c(=O)n(C3CC3)c(=O)c3c(Nc4ccc(I)cc4F)n(C)c(=O)c(C)c32)c1 [Trametinib] (max concentration tested 250 nM) next?
0.89

Can you handle Clc1ccccc1C(c1ccccc1)(c1ccccc1)n1cccn1 [TRAM-34] (max concentration tested 1000 nM) next?
0

Can you handle Clc1ccc(Nc2nnc(Cc3ccncc3)c3ccccc23)cc1 [Vatalanib] (max concentration tested 10000 nM) next?
0

Can you handle CNC(=O)c1ccccc1Nc1nc(Nc2ccc3c(c2OC)CCC[C@H](N2CCN(CCO)CC2)C3)ncc1Cl (max concentration tested 5000 nM) next?
2.99

* * *

- System: YST-1
- Protocol text: relative IC50 (inflection point of fitted dose-response curve, CellTiter-Glo viability, 72 h; top asymptote may be below 50% inhibition); higher = less potent
Result type: relative IC50

// query relative IC50 value for entry `c1ccc([C@H]2CN3CCSC3=N2)cc1`
> 10 µM

Can you handle `Cc1nc(C(=O)NCC(=O)O)c(O)c2ccc(Oc3ccccc3)cc12` next?
> 10 µM

Can you handle `CS(=O)(=O)c1ccc(C2=C(c3ccccc3)C(=O)OC2)cc1` next?
> 10 µM

* * *

Please go through the items and note down their relative IC50.
- Test system: STS26T
- Protocol text: relative IC50 (inflection point of fitted dose-response curve, CellTox-Green cytotoxicity, 72 h; top asymptote may be below 50%); higher = less potent

// query relative IC50 value for entry C[C@@H]1C[C@H]2[C@@H]3CCC4=CC(=O)C=C[C@]4(C)[C@@]3(F)[C@@H](O)C[C@]2(C)[C@@]1(O)C(=O)CO [Dexamethasone]
> 10 µM

Can you handle CCN1CCN(c2ccc(Nc3cc(N(C)C(=O)Nc4c(Cl)c(OC)cc(OC)c4Cl)ncn3)cc2)CC1 [NVP-BGJ398] next?
> 1 µM

Can you handle Oc1ncc(N(CCCl)CCCl)c(O)n1 [Uracil mustard] next?
> 10 µM

Can you handle CCC1(c2ccc(N)cc2)CCC(=O)NC1=O (centres undefined) [Aminoglutethimide] next?
> 10 µM

Can you handle C[C@@H](Oc1cc(-c2cnn(C3CCNCC3)c2)cnc1N)c1c(Cl)ccc(F)c1Cl [Crizotinib] next?
> 1 µM

Can you handle CC(C)c1cc(-c2n[nH]c(=O)n2-c2ccc3c(ccn3C)c2)c(O)cc1O [Ganetespib] next?
0.033 µM

Can you handle `C[C@@]1(C(=O)Nc2ccc(F)nc2)CCCN1c1nc(Nc2cc(C3CC3)n[nH]2)c2cccn2n1` next?
0.279 µM

Can you handle Cc1sc2c(c1C)C(c1ccc(Cl)cc1)=N[C@@H](CC(=O)OC(C)(C)C)c1nnc(C)n1-2 [(+)JQ1] next?
> 10 µM

Can you handle CCN(CC)CCCC(C)Nc1c2ccc(Cl)cc2nc2ccc(OC)cc12 (centres undefined) [Mepacrine aq] next?
2.37 µM
